Measured pIC50 by item
tested on: JAK1-dependent STAT6 phosphorylation downstream of IL-13 stimulation in TF-1 human erythroleukemia cells; assay: cells; settings: TF-1, read-out: IL-13-pSTAT6 IC50
Note: pIC50 values are expressed as the negative base-10 logarithm of concentration in M.

compound	parameter_measured	value_observed
O=C(NCC1CCNCC1)c1ccc(Nc2nc3c(N4CCC(O)(c5ccc(Cl)cc5)CC4)cccn3n2)cc1	pIC50	6.90
CN1CCCC12CN(C(=O)c1ccc(Nc3nc4c(C5=CCN(C(=O)CCC(F)(F)F)CC5)cccn4n3)cc1)C2	pIC50	8.46

// query Would you kindly share the measured pIC50 for CCOC(=O)N1CC=C(c2cccn3nc(Nc4ccc(C(=O)N5CC(N)C5)cc4)nc23)CC1 ?
// result 7.72

// query For the compound O=C(NCC1CCC2(CCNCC2)O1)c1ccc(Nc2nc3c(C4=CCN(C(=O)CCC(F)(F)F)CC4)cccn3n2)cc1 (stereo not shown) , what pIC50 is on record?
// result 6.71

// query May I ask what pIC50 has been recorded for O=C(NC1COC2(CCNCC2)C1)c1ccc(Nc2nc3c(C4=CCN(C(=O)CCC(F)(F)F)CC4)cccn3n2)cc1 (stereo not shown) ?
// result 6.62

// query Suppose we examine the compound NCCNC(=O)c1ccc(Nc2nc3c(N4CCC(O)(c5ccc(Cl)cc5)CC4)cccn3n2)cc1 ; what pIC50 value has been reported?
// result 6.72

// query Data request, read-out pIC50, for O=C(CCC(F)(F)F)N1CC=C(c2cccn3nc(Nc4ccc(C(=O)N5CCCCC56CCNCC6)cc4)nc23)CC1
// result 6.94

// query Look up pIC50 for this compound: CCOC(=O)N1CC=C(c2cccn3nc(Nc4ccc(C(=O)N5CC(C(=O)N(C)C)C5)cc4)nc23)CC1
// result 7.72

// query Look at this compound and give its reported pIC50. COC(=O)N1CC=C(c2cccn3nc(Nc4ccc(C(=O)N(C)C5CCN(C)CC5)cc4)nc23)CC1
// result 6.69

// query GET /values?readout=pIC50&item= O=C(CCC(F)(F)F)N1CC=C(c2cccn3nc(Nc4ccc(C(=O)N5CCC(c6cc7cccnc7[nH]6)CC5)cc4)nc23)CC1
// result 6.88

// query pIC50 for CN(CCc1cccnc1)C(=O)c1ccc(Nc2nc3c(C4=CCN(C(=O)CCC(F)(F)F)CC4)cccn3n2)cc1 ?
// result 8.10

// query For the compound CC(C)C(=O)N1CC=C(c2cccn3nc(Nc4ccc(C(=O)N(C)C5CCN(C)CC5)cc4)nc23)CC1 , what pIC50 is on record?
// result 6.89

---

target: isolated recombinant JAK2 kinase domain (Homo sapiens (Human), UniProt O60674); conditions: read-out: JAK2 Ki; isolated recombinant JAK2 kinase domain, 25 μM ATP
Sequence (O60674 849-1124): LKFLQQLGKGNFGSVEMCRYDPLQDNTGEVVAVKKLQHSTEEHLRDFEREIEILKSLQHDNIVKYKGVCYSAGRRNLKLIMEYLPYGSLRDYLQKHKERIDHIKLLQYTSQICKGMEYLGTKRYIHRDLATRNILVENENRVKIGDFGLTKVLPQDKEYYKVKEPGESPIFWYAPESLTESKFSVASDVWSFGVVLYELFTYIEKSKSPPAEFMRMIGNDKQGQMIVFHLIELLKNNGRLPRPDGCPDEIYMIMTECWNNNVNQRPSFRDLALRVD
API: label(entry) gives fulfilled if the entry's Ki is strictly smaller than 1 nM; on equality or larger values it gives not fulfilled.

// query Dear reviewer, please state whether CN(Cc1cccnc1)C(=O)c1ccc(Nc2nc3c(N4CCC(O)(c5ccc(Cl)cc5)CC4)cccn3n2)cc1 has Ki strictly beneath 1 nM.
// result not fulfilled

// query Check if Ki falls below 1 nM for CN1CCC(N(C)C(=O)c2ccc(Nc3nc4c(N5CCC(C)(N(C)S(=O)(=O)c6ccccc6)CC5)cccn4n3)cc2)CC1 .
// result not fulfilled

---

test system: JAK1-dependent STAT6 phosphorylation downstream of IL-13 stimulation in TF-1 human erythroleukemia cells; experiment: cells; conditions: TF-1, read-out: IL-13-pSTAT6 IC50
parameter_measured: pIC50
Hey, just a heads up that pIC50 is the negative log base 10 of the concentration in molar.

molecule	parameter_measured	value_observed
CN1CCC(N(C)C(=O)c2ccc(Nc3nc4c(C5=CCN(C(=O)N6CC(C)(C)C6)CC5)cccn4n3)cc2)CC1	pIC50	7.42
CN1CCN(CCCNC(=O)c2ccc(Nc3nc4c(N5CCC(O)(c6ccc(Cl)cc6)CC5)cccn4n3)cc2)CC1	pIC50	7.19
CN1C[C@@H]2CCN(C(=O)c3ccc(Nc4nc5c(N6CCC(O)(c7ccc(Cl)cc7)CC6)cccn5n4)cc3)[C@@H]2C1	pIC50	7.90

// query What does the data say about its pIC50? Entry: CCOC(=O)N1CC=C(c2cccn3nc(Nc4ccc(C(=O)NCC5CCNCC5)cc4)nc23)CC1
// result 6.65

// query pIC50 for O=C(CCC(F)(F)F)N1CC=C(c2cccn3nc(Nc4ccc(C(=O)N5CCCC5Cc5ccccn5)cc4)nc23)CC1 (stereo not shown) ?
// result 8.27

// query Give the measured pIC50 of O=C(c1ccc(Nc2nc3c(N4CCC(O)(c5ccc(Cl)cc5)CC4)cccn3n2)cc1)N1CCN(C2CC2)CC1 .
// result 7.00

// query pIC50 value for entry CN(C)CCNC(=O)c1ccc(Nc2nc3c(C4=CCN(C(=O)CCC(F)(F)F)CC4)cccn3n2)cc1
// result 8.07

---

Let's look at some compounds and their measured IC50.
test system: JAK1-dependent STAT6 phosphorylation downstream of IL-13 stimulation in TF-1 human erythroleukemia cells; test: cells; conditions: TF-1, read-out: IL-13-pSTAT6 IC50
Provide a numeric answer, followed by its unit.

// query // IC50 lookup, key: CN1CCC2(C1)CN(C(=O)c1ccc(Nc3nc4c(N5CCC(O)(c6ccc(Cl)cc6)CC5)cccn4n3)cc1)C2
// result 0.0155 µM

// query So what does the record say about IC50 for O=C(c1ccc(Nc2nc3c(N4CCC(O)(c5ccc(Cl)cc5)CC4)cccn3n2)cc1)N1CCC2(CCCNC2)C1 (centres unmarked) ?
// result 0.196 µM

// query Any idea what IC50 was measured for O=C(c1ccc(Nc2nc3c(N4CCC(O)(c5ccc(Cl)cc5)CC4)cccn3n2)cc1)N1CC2(CCNC2)C1 ?
// result 0.111 µM

// query Which value of IC50 has been reported for CN1CCC(N(C)C(=O)c2ccc(Nc3nc4c(C5=CCN(C(=O)c6ccccc6)CC5)cccn4n3)cc2)CC1 in the records?
// result 0.188 µM

---

test system: JAK1-dependent STAT6 phosphorylation downstream of IL-13 stimulation in TF-1 human erythroleukemia cells; assay: cells; conditions: TF-1, read-out: IL-13-pSTAT6 IC50
parameter_measured: pIC50
pIC50 field: float, defined as -log10 of concentration (mol/L).

Worked examples follow.
compound	parameter_measured	value_observed
CN1CCN(C(=O)C2CN(C(=O)c3ccc(Nc4nc5c(C6=CCN(C(=O)CCC(F)(F)F)CC6)cccn5n4)cc3)C2)CC1 [Example 2-159]	pIC50	7.45
O=C(CCC(F)(F)F)N1CC=C(c2cccn3nc(Nc4ccc(C(=O)N5CCC6(CCCNC6)C5)cc4)nc23)CC1 (stereo not drawn) [Example 2-253]	pIC50	6.82
CCOC(=O)N1CC=C(c2cccn3nc(Nc4ccc(C(=O)N[C@H]5[C@@H]6CNC[C@@H]65)cc4)nc23)CC1 [Example 2-434]	pIC50	6.64
CN(C)c1cc(CC2CCN(C(=O)c3ccc(Nc4nc5c(N6CCC(O)(c7ccc(Cl)cc7)CC6)cccn5n4)cc3)C2)ncn1 (stereo not drawn) [Example 1-151]	pIC50	6.97
O=C(CCC(F)(F)F)N1CC=C(c2cccn3nc(Nc4ccc(C(=O)N5CC[C@H]6CNC[C@H]65)cc4)nc23)CC1 [Example 2-320]	pIC50	6.92
O=C(CCC(F)(F)F)N1CC=C(c2cccn3nc(Nc4ccc(C(=O)N5CCCC56CCCNC6)cc4)nc23)CC1 (stereo not drawn) [Example 2-257]	pIC50	7.22
O=C(CCC(F)(F)F)N1CC=C(c2cccn3nc(Nc4ccc(C(=O)N5CC6(CCNC6)C5)cc4)nc23)CC1 [Example 2-35]	pIC50	7.02
CN1CCC(NC(=O)c2ccc(Nc3nc4c(C5=CCN(C(=O)CCC(F)(F)F)CC5)cccn4n3)cc2)CC1 [Example 2-335]	pIC50	7.84
CN1CCC(N(C)C(=O)c2ccc(Nc3nc4c(C5=CCN(C(=O)CC(C)(C)O)CC5)cccn4n3)cc2)CC1 [Example 2-3]	pIC50	6.79
CCOC(=O)N1CC=C(c2cccn3nc(Nc4ccc(C(=O)N5CCC(CN)C5)cc4)nc23)CC1 (stereo not drawn) [Example 2-130]	pIC50	6.65

// query Given CC1CCCN(CCNC(=O)c2ccc(Nc3nc4c(C5=CCN(C(=O)CCC(F)(F)F)CC5)cccn4n3)cc2)C1 (stereo not drawn) [Example 2-101] , state its recorded pIC50.
// result 8.46

// query # input compound: O=C(N[C@H]1CCCNC1)c1ccc(Nc2nc3c(C4=CCN(C(=O)CCC(F)(F)F)CC4)cccn3n2)cc1 [Example 2-138] ; wanted: its pIC50
// result 7.21

// query Give its pIC50 value. Item: O=C(NC1CCNCC1)c1ccc(Nc2nc3c(C4=CCN(C(=O)CCC(F)(F)F)CC4)cccn3n2)cc1 [Example 2-445]
// result 6.34

// query Entry CN1CCN(CCNC(=O)c2ccc(Nc3nc4c(N5CCC(O)(c6ccc(Cl)cc6)CC5)cccn4n3)cc2)CC1 [Example 1-97] has what pIC50?
// result 7.60

// query pIC50 value for entry O=C(c1ccc(Nc2nc3c(N4CCC(O)(c5ccc(Cl)cc5)CC4)cccn3n2)cc1)N1C[C@H]2CNC[C@H]2C1 [Example 1-235]
// result 6.51

// query What value of pIC50 has been recorded for this entry: CCOC(=O)N1CC=C(c2cccn3nc(Nc4ccc(C(=O)N(C)CCc5ccncc5)cc4)nc23)CC1 [Example 2-119]
// result 7.62

// query Suppose we examine the compound O=C(CCC(F)(F)F)N1CC=C(c2cccn3nc(Nc4ccc(C(=O)N5CCN(c6ccccn6)CC5)cc4)nc23)CC1 [Example 2-397] ; what pIC50 value has been reported?
// result 7.69

// query Would you kindly share the measured pIC50 for CN1CCC(N(C)C(=O)c2ccc(Nc3nc4c(N5CCC(CC(F)F)(c6ccc(Cl)cc6)CC5)cccn4n3)cc2)CC1 [Example 1-256] ?
// result 7.25
